Readout Label: melting point

Entry COc1c(C2CCN(CCCCNC(=O)c3sc(-c4ccc(C#N)cc4)nc3C)CC2)ccc2c1CCCC2 has what melting point? 160 to 164 °C

Same lookup for Cc1cc(F)cnc1Cl , please. 38 to 40 °C

Same lookup for O=C(Nc1ccc(CN2CCOCC2)cc1)C1=Cc2cc(-c3ccccc3)ccc2CC1 , please. 186 to 187 °C

Same lookup for O=C(Nc1cccc2c1ncc1c(=O)n3ccnc3sc12)c1c(Cl)cccc1Cl , please. > 250 °C

Same lookup for CN(C)c1c(-c2ccccc2)sc2ccc(Cl)cc12 , please. 79 to 81 °C

Same lookup for Clc1ccc(CCCN2CCc3cc(OC[C@H]4CO[C@](Cn5ccnc5)(c5ccc(Cl)cc5)O4)ccc3C2)cc1 (racemic) , please. 101 to 103 °C

Same lookup for CCn1c(=O)c(-c2c(Cl)cccc2Cl)cc2cnc(Nc3ccccc3)nc21 , please. 223 to 225 °C

Same lookup for CN1C(=O)COc2c1cc(Cl)c([N+](=O)[O-])c2C(=O)O , please. 257 °C

Same lookup for CCOC(=O)c1c(-c2cccc([N+](=O)[O-])c2)cc(-c2ccccc2)nc1C , please. 110 to 112 °C

###

What melting point was measured for each of the following?

Entry CC1(C)CCC(C)(C)c2cc(-c3cc([N+](=O)[O-])ccc3-c3ccccc3)ccc21 has what melting point? 181 to 183 °C

Same lookup for C=CC[N+]([O-])(CCCCCCCCCCCCCCCCCC)CCCCCCCCCCCCCCCCCC , please. 59 to 64 °C

Same lookup for O=C(CC(=O)c1ccccc1O)c1cc(O)c(O)c([N+](=O)[O-])c1 , please. 251 to 252 °C

Same lookup for CC(NC(Nc1cc(C(F)(F)F)cc(C(F)(F)F)c1)=C(C#N)S(=O)(=O)c1ccc(Cl)cc1)C(C)(C)C (centres undefined) , please. 156 to 158 °C

Same lookup for CN(C(=O)Cc1cccc2[nH]ccc12)C1c2ccccc2CC1N1CCCC1 (centres undefined) , please. 202 to 204 °C

Same lookup for COCCc1nc2c(N)nc3ccccc3c2n1CCCNS(=O)(=O)c1cccc2c(N(C)C)cccc12 , please. 210 to 215 °C

Same lookup for O=Cc1ccn(-c2cc3[nH]c(=O)c(=O)[nH]c3cc2[N+](=O)[O-])c1 , please. > 250 °C

Same lookup for CNC(=O)ON=C1N=C(C(C)C)C(C)(C)S1 , please. 89 to 91 °C

Same lookup for CCCCCCCCCCCCCc1c[nH]c(C=O)c1 , please. 61 to 64 °C

###

What melting point was measured for each of the following?

Entry COC(=O)CCC(C)(C)c1ccc(OC)c(NC(=O)C[C@H]2O[C@H](c3cccc(OC)c3OC)c3cc(Cl)ccc3N(CC(C)(C)COC(C)=O)C2=O)c1 has what melting point? 157 to 158 °C

Same lookup for Cc1ccc([N+](=O)[O-])c(NC=C2C(=O)OC(C)(C)OC2=O)c1 , please. 218 to 220 °C

Same lookup for COc1ccc(-c2nc(NC(C)=O)n3nc(-c4ccco4)nc3n2)cc1 , please. 243 to 246 °C

Same lookup for Cc1cnc(C#N)n1Cc1ccccc1 , please. 51.5 to 52.5 °C

Same lookup for Nc1ccc(NC(=O)c2ccc(N)cc2O)cc1 , please. 235 to 238 °C

Value source: a melting point compilation (Tetko et al.; mined from patent text by program, amines drawn as free bases though some values may be those of a salt)
